Some compounds, each annotated with its measured log10 IC50.
Target: human SGLT2 (Homo sapiens, UniProt P31639)
Sequence (P31639 whole entry): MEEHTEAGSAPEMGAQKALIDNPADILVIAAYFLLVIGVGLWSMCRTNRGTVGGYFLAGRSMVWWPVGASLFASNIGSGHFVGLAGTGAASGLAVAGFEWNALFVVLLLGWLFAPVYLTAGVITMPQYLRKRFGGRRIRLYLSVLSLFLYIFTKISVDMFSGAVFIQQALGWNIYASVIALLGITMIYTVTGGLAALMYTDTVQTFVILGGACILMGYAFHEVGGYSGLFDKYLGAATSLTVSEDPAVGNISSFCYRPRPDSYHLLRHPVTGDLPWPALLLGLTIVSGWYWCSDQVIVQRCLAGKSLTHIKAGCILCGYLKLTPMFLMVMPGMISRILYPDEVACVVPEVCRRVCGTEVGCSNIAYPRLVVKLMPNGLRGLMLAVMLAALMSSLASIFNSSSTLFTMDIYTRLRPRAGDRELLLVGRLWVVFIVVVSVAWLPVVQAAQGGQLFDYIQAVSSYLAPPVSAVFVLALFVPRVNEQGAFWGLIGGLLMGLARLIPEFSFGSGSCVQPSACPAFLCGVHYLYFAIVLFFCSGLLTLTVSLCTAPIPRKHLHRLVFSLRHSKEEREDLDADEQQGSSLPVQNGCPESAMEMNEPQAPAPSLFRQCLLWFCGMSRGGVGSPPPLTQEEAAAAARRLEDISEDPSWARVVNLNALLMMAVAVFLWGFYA
Assay: Methyl-α-D-glucopyranoside intake inhibition activity in human SGLT2 stable expression CHO cells
Details: methyl-α-D-(U-14C)glucopyranoside intake, 37° C., 45 minutes
PROPERTY_LABEL: log10 IC50 (log10 of the value in nM)

{"columns": ["COMPOUND", "log10 IC50"],
 "data": [
  ["CCOc1ccc(Cc2ccc(CC)cc2)cc1[C@@H]1C[C@H](CO)[C@@H](O)[C@H](O)[C@H]1O [Example 68]", 1.26],
  ["COc1ccc(Cc2ccccc2O[C@@H]2C[C@H](CO)[C@@H](O)[C@H](O)[C@H]2O)cc1 [Example 1]", 1.79],
  ["CCc1ccc(Cc2cccc(C3=C[C@H](CO)[C@@H](O)[C@H](O)[C@H]3O)c2)cc1 [Example 64]", 0.82],
  ["OC[C@H]1C[C@@H](Oc2ccccc2Cc2ccc(C3CC3)cc2)[C@H](O)[C@@H](O)[C@@H]1O [Example 8]", 0.85],
  ["OCC1=C[C@@H](Oc2ccccc2Cc2ccc(C3CC3)cc2)[C@H](O)[C@@H](O)[C@@H]1O [Example 62]", 0.85],
  ["Cc1cc(O[C@@H]2C[C@H](CO)[C@@H](O)[C@H](O)[C@H]2O)c(Cc2ccc(C3CC3)cc2)s1 [Example 59]", 0.95],
  ["COc1ccc(Cc2cccc([C@@H]3C[C@H](CO)[C@@H](O)[C@H](O)[C@H]3O)c2)cc1 (single isomer, unassigned) [Example 2]", 2.05]
]}

###

Some compounds, each annotated with its measured IC50.
Biological target: human SGLT2 (Homo sapiens, UniProt P31639)
Assay: Methyl-α-D-glucopyranoside intake inhibition activity in human SGLT2 stable expression CHO cells
Conditions: methyl-α-D-(U-14C)glucopyranoside intake, 37° C., 45 minutes

{"columns": ["COMPOUND", "IC50 [nM]"],
 "data": [
  ["CCc1ccc(Cc2ccccc2O[C@@H]2C[C@H](CO)[C@@H](O)[C@H](O)[C@H]2O)cc1 [Example 25]", 31],
  ["C=Cc1ccc(Cc2ccccc2O[C@@H]2C[C@H](CO)[C@@H](O)[C@H](O)[C@H]2O)cc1 [Example 44]", 16],
  ["OC[C@H]1C[C@@H](Oc2cnccc2Cc2ccc(C3CC3)cc2)[C@H](O)[C@@H](O)[C@@H]1O [Example 42]", 7.7],
  ["COc1ccc(Cc2ccc(C)cc2O[C@@H]2C[C@H](CO)[C@@H](O)[C@H](O)[C@H]2O)cc1 [Example 54]", 14],
  ["CCc1ccc(Cc2cc([C@@H]3C[C@H](CO)[C@@H](O)[C@H](O)[C@H]3O)c(OC)cc2OC)cc1 [Example 70]", 7.4],
  ["CCc1ccc(Cc2sccc2O[C@@H]2C[C@H](CO)[C@@H](O)[C@H](O)[C@H]2O)cc1 [Example 55]", 17],
  ["CSc1ccc(Cc2ccccc2O[C@@H]2C[C@H](CO)[C@@H](O)[C@H](O)[C@H]2O)cc1 [Example 11]", 14]
]}
